Conditions: [M+NH4]+; instrument: TW; calibrated with phosphatidylcholines (ESI+) and phosphatidylethanolamines (ESI-)
Assay readout: collision cross section (N2) (Å²)
The response must be a number in Å² with no trailing unit.

# Compound, Unit annotation, collision cross section (N2)
measured = [
    ("CCCCCCCCCCCCCCC(=O)OC[C@H](CO[C@@H]1O[C@H](CO[C@H]2O[C@H](CO)[C@H](O)C(O)C2O)[C@H](O)C(O)C1O)OC(=O)CCCCCCCCCCCCCC (some centres undefined) [DGDG(30:0)]", "Å²", 302.4),
    ("CCCCCCCCCCCCCCCCC(=O)OC[C@H](CO[C@@H]1O[C@H](CO[C@H]2O[C@H](CO)[C@H](O)C(O)C2O)[C@H](O)C(O)C1O)OC(=O)CCCCCCCCCCCCCCCC (some centres undefined) [DGDG(34:0)]", "Å²", 314.2),
]

Please give the measured collision cross section (N2) for this compound: CCCCCCCCCCCCC=CCC(=O)OC[C@H](CO[C@@H]1O[C@H](CO[C@H]2O[C@H](CO)[C@H](O)C(O)C2O)[C@H](O)C(O)C1O)OC(=O)CC=CCCCCCCCCCCCC (some centres undefined) [DGDG(32:2)]
302.2

What do you get for CCCCCCCCCCCCCCC=CCC(=O)OC[C@H](CO[C@@H]1O[C@H](CO[C@H]2O[C@H](CO)[C@H](O)C(O)C2O)[C@H](O)C(O)C1O)OC(=O)CC=CCCCCCCCCCCCCCC (some centres undefined) [DGDG(36:2)] ?
315.2

The origin of these recorded values is the C3SDB collision cross section collection.
